# ASSAYED_SYSTEM: Metabotropic glutamate receptor 4 (Homo sapiens, UniProt Q14833)
# Sequence (Q14833 whole entry): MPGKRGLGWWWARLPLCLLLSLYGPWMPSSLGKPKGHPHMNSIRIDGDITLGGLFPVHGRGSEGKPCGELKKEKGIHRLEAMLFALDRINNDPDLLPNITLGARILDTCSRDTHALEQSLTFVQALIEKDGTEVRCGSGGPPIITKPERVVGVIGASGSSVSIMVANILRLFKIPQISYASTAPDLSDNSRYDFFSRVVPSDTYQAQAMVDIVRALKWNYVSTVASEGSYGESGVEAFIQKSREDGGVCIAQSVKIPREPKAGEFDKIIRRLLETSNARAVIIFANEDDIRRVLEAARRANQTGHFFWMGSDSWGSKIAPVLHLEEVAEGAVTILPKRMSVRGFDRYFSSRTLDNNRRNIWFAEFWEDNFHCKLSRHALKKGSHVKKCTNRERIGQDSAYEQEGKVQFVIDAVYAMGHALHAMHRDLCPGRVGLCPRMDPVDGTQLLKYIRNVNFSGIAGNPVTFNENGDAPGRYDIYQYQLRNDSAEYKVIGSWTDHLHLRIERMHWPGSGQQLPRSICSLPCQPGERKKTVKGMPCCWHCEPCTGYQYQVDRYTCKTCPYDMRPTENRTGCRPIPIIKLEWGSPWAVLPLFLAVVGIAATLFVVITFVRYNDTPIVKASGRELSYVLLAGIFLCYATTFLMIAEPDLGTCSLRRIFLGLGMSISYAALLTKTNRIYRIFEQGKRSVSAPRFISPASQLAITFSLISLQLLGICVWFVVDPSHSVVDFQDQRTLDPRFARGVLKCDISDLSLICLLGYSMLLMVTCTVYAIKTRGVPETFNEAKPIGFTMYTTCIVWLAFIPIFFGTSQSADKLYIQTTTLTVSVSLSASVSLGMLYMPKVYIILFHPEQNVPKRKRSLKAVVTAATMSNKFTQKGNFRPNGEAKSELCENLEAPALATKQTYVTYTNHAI
# ASSAY_PROCEDURE: Receptor Activity Assay: The disclosed compounds and compositions can be evaluated for their ability to act as a potentiator of metabotropic glutamate receptor activity, in particular mGluR4 activity, by any suitable known methodology known in the art. For example, Chinese Hamster Ovary (CHO) cells transfected with human mGluR4 or HEK cells co-transfected with rat mGuR4 and the G-protein regulated Inwardly Rectifying Potassium channel (GIRK) were plated in clear bottom assay plates for assay in a Hamamatsu FDSS Fluorometric Plate Reader. The cells were loaded with either a Ca2+-sensitive fluorescent dye or the thallium responsive dye and the plates were washed and placed into a suitable kinetic plate reader. For human mGuR4 assays, a fluorescence baseline was established for 3-5 seconds, the disclosed compounds were then added to the cells, and the response in cells was measured. Approximately two and a half minutes later, a concentration of mGuR4 orthosteric agonist (e.g. glutamate or L-AP4) eliciting approximately 20% (EC20) of the maximal agonist response was added to the cells, and the response was measured. Two minutes later, a concentration of mGluR4 agonist (e.g. glutamate or L-AP4) eliciting 80% (EC80) of the maximal agonist response was added to the cells, and the response was measured. For rat mGuR4/GIRK experiments, a baseline was established for approximately five seconds, disclosed compounds were added, and either an EC20 or EC80 concentration of agonist was added approximately two and one half minutes later.
MEASURED_ENDPOINT: pEC50
Note: pEC50 values are expressed as the negative base-10 logarithm of concentration in M.

Below, each entry is followed by its recorded pEC50 result.
CO[C@H](C)COc1nccc2cc(Nc3n[nH]c4cccnc34)ccc12
7.84
c1cnc2[nH]nc(Nc3ccc4c(O[C@H]5CCOC5)nccc4c3)c2c1
7.35
CO[C@H](C)COc1nccc2cc(Nc3n[nH]c4nccnc34)ccc12
7.76

Per the records, this compound ( `COCCOc1nccc2cc(Nc3n[nH]c4ncc(F)cc34)ccc12` ) has pEC50 equal to 7.08

pEC50 in this record for `c1cc2cc(Nc3n[nH]c4nccnc34)ccc2c(OCC2CCOCC2)n1` : 7.79
